- System: RPMI-8226 leukemia
- experiment: NCI tumour cell line growth inhibition, 48 h; in the data active = GI50 below about 0.43 µM; inactive = the rest
The reply should be one of these categories: true (1) for active, false (0) for inactive

Look over these answered cases.
>  <substance_smiles>
CCCS(=O)(=O)c1nc(NC2CC2)cc(-c2ccc3c(ccn3C3CC(C)(C)NC(C)(C)C3)c2)n1

>  <class_label>
false (0)

$$$$
>  <substance_smiles>
CC1=C(C)C(=O)O[C@@H]([C@](C)(O)[C@]2(O)CC[C@@]3(O)[C@@H]4C[C@H]5O[C@]56CC=CC(=O)[C@]6(C)[C@H]4CC[C@]23C)C1

>  <class_label>
true (1)

$$$$
>  <substance_smiles>
CN(C)c1nc(-c2cccs2)n2nc(-c3ccc(Cl)cc3)cc2n1

>  <class_label>
false (0)

$$$$

Request: Can you look up the reported call for CCCCCC(=O)Oc1ccc(/C(=C(\C)c2ccc(OC)cc2)c2ccc(OCCN3CCCCC3)cc2)cc1 for me?
Result: false (0)

###

Heads up, these compounds all have GI50 values measured for MDA-MB-435.

Known results for compounds:
>  <compound>
Cc1ncc(NC(=O)c2ccc(CN3CCN(C)CC3)c(C(F)(F)F)c2)cc1Nc1nccc(-c2cccnc2)n1

>  <target_under_test>
MDA-MB-435

>  <value>
12000 nM

$$$$
>  <compound>
CNC(=O)c1ccc(-c2cnc3ncc(Cc4ccc5ncccc5c4)n3n2)cc1F

>  <target_under_test>
MDA-MB-435

>  <value>
> 100000 nM

$$$$

Request: What value of measured GI50 is listed for FC(F)(F)c1ccc2c(Nc3cccc(C4CC(c5ccccc5)=NN4c4ccc(Cl)cc4)c3)ccnc2c1 (centres undefined) ?
Result: 2970 nM

Request: For CCCNCc1cc(C)cc2c1nc(N1CCNCC1)n2Cc1cc(C)c(F)c(C)c1 , what is its reported GI50?
Result: 1700 nM

Request: Which GI50 is listed for COc1cc2c3c(n(CCCN4CCC(N)CC4)c(=O)c2cc1OC)-c1cc2c(cc1C3=O)OCO2 ?
Result: 1770 nM

Request: Requested read-out: GI50. Entry: C=C1C(=O)O[C@H]2[C@H]1CC/C(COC(=O)c1cc3cc(OC)ccc3[nH]1)=C\CC[C@@]1(C)O[C@@H]21
Result: 621 nM

Request: Record request: GI50 value, item Cc1noc(C)c1-c1ccc2[nH]c(=O)n3c2c1OC[C@@H]3c1ccccn1
Result: 3000 nM

Request: Report GI50 for NCCN1CCN(c2nccc(-c3ccc4ccccc4c3)n2)CC1 please.
Result: 1800 nM

Request: Name the recorded GI50 for CC(=O)[CH-]C(C)=O.CC(=O)[CH-]C(C)=O.N=CC=N.[Sn+2] .
Result: 2590 nM

###

- System: UO-31 renal
- experiment: NCI tumour cell line growth inhibition, 48 h; in the data active = GI50 below about 0.43 µM; inactive = the rest
Bench note: report the call from YES = active, NO = inactive

>  <compound>
CC1=C(C)C(=O)O[C@@H]([C@](C)(O)[C@]2(O)CC[C@@]3(O)[C@@H]4C[C@H]5O[C@]56CC=CC(=O)[C@]6(C)[C@H]4CC[C@]23C)C1

>  <class_label>
YES

$$$$
>  <compound>
NCCN1CCN(c2nccc(-c3ccc4ccccc4c3)n2)CC1

>  <class_label>
NO

$$$$
>  <compound>
Clc1ccc(OCc2nnc3n2N=C(c2ccc(Cl)cc2Cl)CS3)c(Cl)c1

>  <class_label>
NO

$$$$
>  <compound>
N#Cc1c(-c2ccccc2)nc2c(c(-c3ccccc3)nn2-c2ccccc2)c1-c1ccc(O)cc1

>  <class_label>
NO

$$$$
>  <compound>
FC(F)(F)c1ccc2c(Nc3cccc(C4CC(c5ccccc5)=NN4c4ccc(Cl)cc4)c3)ccnc2c1 (configuration not stated)

>  <class_label>
NO

$$$$

Request: Per the assay record, what outcome was assigned to C=C(C)[C@@H]1CC[C@@]2(C(=O)O)CC[C@]3(C)C(CCC4[C@@]5(C)CCC(OS(=O)(=O)c6ccccc6)C(C)(C)C5CC[C@]43C)C12 (some centres not stated) ?
Result: NO

Request: How did this test come out for C=C1CC(COc2cc(Cl)nc(N)n2)C1 ?
Result: NO

Request: Can you look up the reported call for CCOC(=O)[C@@H](C)C[C@H](Cc1ccccc1)NC(=O)c1csc([C@@H](C[C@H](C(C)C)N(C)C(=O)[C@@H](NC(=O)[C@H]2CCCCN2C)C(C)(C)C)OC(C)=O)n1 for me?
Result: YES

Request: Which outcome was assigned to CCCCCCNc1nc(NCCCCCC)c2[nH]c(NCCCCCC)nc2n1 in this test?
Result: NO

Request: Tell me the assay call for O=C(Nc1cc(-c2ccccc2)[nH]n1)c1ccc(Cl)cc1 please.
Result: NO

Request: Hi team, can someone confirm the assay call for COc1ccc(-c2cc(-c3cc(Cl)ccc3Cl)nc3nc(=S)[nH]c(N)c23)cc1 ?
Result: NO

Request: GET /call?item= COc1cc(/C=C2\CC3C4CC=C5CC(N6CCCC6)CC[C@]5(C)C4CC[C@]3(C)C2OC(C)=O)ccc1OCCN1CCCC1 (some centres not stated) returns the recorded outcome of this test.
Result: NO
